The entries below come with measured drug sensitivity score values attached.
Test system: Vero E6
Method Notes: drug sensitivity score (DSS) for viability; higher = more toxic; extreme values may be limits of the assay
Condition Parameters: 72 h
When you answer, write just the number.

Past entries and their recorded results:
NC12CC3CC(CC(C3)C1)C2 [amantadine]	0
COc1ncc(-c2ccc3c(Nc4cc(Oc5cc(F)cc(F)c5)cc(C(=O)O)c4)c(S(=O)(=O)NC4CC4)cnc3c2)c(OC)n1	0
Cc1cc(I)ccc1Nc1c(C(=O)NOCC2CC2)cc(F)c(F)c1F	5.2
C[C@H](NC(=O)C(C)(C)Oc1ccc(C(F)(F)F)cn1)[C@@H](Cc1ccc(Cl)cc1)c1cccc(C#N)c1 [taranabant]	0.4

Query: In one line, give reported drug sensitivity score of the entry OC[C@H]1O[C@H](O[C@H]2[C@H](O)[C@@H](O)[C@H](O)O[C@@H]2CO)[C@H](O)[C@@H](O)[C@@H]1O [D-(+)-maltose] .
Reply: 0

Query: In one line, give reported drug sensitivity score of the entry OCC(CO)N[C@H]1C[C@](O)(CO)[C@@H](O)[C@H](O)[C@H]1O [voglibose] .
Reply: 0

Query: In one line, give reported drug sensitivity score of the entry Cc1nc2n(c(=O)c1CCN1CCC(c3noc4cc(F)ccc34)CC1)CCCC2O (stereo not given) [paliperidone] .
Reply: 0

Query: In one line, give reported drug sensitivity score of the entry O=C1COc2nccc(-c3ccccc3F)c2CN1Cc1cc(C(F)(F)F)cc(C(F)(F)F)c1 [GPBAR-A] .
Reply: 0

Query: In one line, give reported drug sensitivity score of the entry COC(=O)c1c(-c2cc(OC)c(OC)c(OC)c2)c2ccnc(OCc3ncccn3)c2c(=O)n1Cc1ccnc(C)c1 [T-0156] .
Reply: 0

Query: In one line, give reported drug sensitivity score of the entry CC(C(=O)O)c1ccc2c(c1)Cc1cccnc1O2 (stereo not given) [pranoprofen] .
Reply: 0

----------
The entries below come with measured cell viability values attached.
Tested on: Calu-3
Method Notes: cell viability relative to DMSO; higher = less toxic
Condition Parameters: 72 h; 100 nM
Give the number; % is assumed, so skip it.

Past entries and their recorded results:
CC(C)(C#N)c1ccc(N2C(=O)OCc3cnc4ccc(-c5cnc6ccccc6c5)cc4c32)cc1	110
Cc1cccc(-c2[nH]c(C(C)(C)C)nc2-c2ccc3nccnc3c2)n1	109
C[C@@H](Oc1ccc(Cl)cc1)c1ccnc2ncnn12	100
CC(=O)[C@H]1CC[C@H]2[C@@H]3CCC4=CC(=O)CC[C@]4(C)[C@H]3CC[C@]12C	87.2
CC(C)C[C@@H](N)C(=O)N[C@H]1C(=O)N[C@@H](CC(N)=O)C(=O)N[C@H]2C(=O)N[C@H]3C(=O)N[C@H](C(=O)N[C@H](C(=O)O)c4cc(O)cc(O)c4-c4cc3ccc4O)[C@H](O)c3ccc(c(Cl)c3)Oc3cc2cc(c3O[C@@H]2O[C@H](CO)[C@@H](O)[C@H](O)[C@H]2O[C@H]2C[C@](C)(N)[C@H](O)[C@H](C)O2)Oc2ccc(cc2Cl)[C@H]1O	104

Query: In one line, give reported cell viability of the entry O=C(NC(=O)c1c(F)cccc1F)Nc1cc(Cl)c(OC(F)(F)C(F)C(F)(F)F)cc1Cl (stereo not given) .
Reply: 92.1

Query: In one line, give reported cell viability of the entry "C[C@@]1(O)[C@H](O)[C@@H](CO)O[C@H]1n1cnc2c(NC3CCCC3)nc(Cl)nc21" .
Reply: 96.5

Query: In one line, give reported cell viability of the entry "Cc1ccc(S(=O)(=O)OCC(=O)Nc2ccc(C(=O)O)c(O)c2)cc1" .
Reply: 102

----------
Tested on: U2OS
Method Notes: cell viability relative to DMSO; higher = less toxic
Condition Parameters: 72 h; 1000 nM
The entries below come with measured cell viability values attached.
Please state the value followed by its unit.

CC(=O)Nc1ccc(S(=O)(=O)c2ccc(NC(C)=O)cc2)cc1	104%
Cc1ccc2c(=O)c3ccccc3n(CCCN)c2c1C	103%
CCCCc1ccc(NS(=O)(=O)c2ccc(F)cc2)cc1	101%

Query: In one line, give reported cell viability of the entry Nc1ccc(C(=O)O)c(O)c1 [aminosalicylate] .
Reply: 104%

Query: In one line, give reported cell viability of the entry "O=C(CCCCCCNC(=O)c1cnc(N(c2ccccc2)c2ccccc2)nc1)NO" .
Reply: 88.6%

Query: In one line, give reported cell viability of the entry "Cc1noc(NS(=O)(=O)c2cccc3c(N(C)C)cccc23)c1C" .
Reply: 100%

----------
The entries below come with measured drug sensitivity score values attached.
Tested on: U2OS
Method Notes: drug sensitivity score (DSS) for viability; higher = more toxic; extreme values may be limits of the assay
Condition Parameters: 72 h
When you answer, write just the number.

COc1ccc(COc2ccc(Cc3cnc(N)nc3N)cc2OC)cc1	0
O=C(/C=C\n1cnc(-c2cc(C(F)(F)F)cc(C(F)(F)F)c2)n1)NNc1cnccn1 [selinexor]	18.8

Query: Provide the reported drug sensitivity score (system: U2OS) for "CCCCCCCCN=c1ccn(CCCCCCCCCCn2ccc(=NCCCCCCCC)cc2)cc1"
Reply: 7

Query: Provide the reported drug sensitivity score (system: U2OS) for C[N+](C)(C)CC(O)CC(=O)[O-] (stereo unspecified)
Reply: 0

Query: Provide the reported drug sensitivity score (system: U2OS) for "O=C(Nc1ccc(-c2ccncc2)cc1)N[C@H](CO)c1ccccc1"
Reply: 0

Query: Provide the reported drug sensitivity score (system: U2OS) for "O=C(O)c1c2ccccc2cc2ccccc12"
Reply: 0

Query: Provide the reported drug sensitivity score (system: U2OS) for OC[C@H]1O[C@H](O[C@H]2[C@H](O)[C@@H](O)[C@H](O)O[C@@H]2CO)[C@H](O)[C@@H](O)[C@@H]1O [D-(+)-maltose]
Reply: 0

Query: Provide the reported drug sensitivity score (system: U2OS) for "N[C@@H](Cc1c[nH]c2ccccc12)C(=O)O"
Reply: 0

Query: Provide the reported drug sensitivity score (system: U2OS) for "Cc1cc(I)ccc1Nc1c(C(=O)NOCC2CC2)cc(F)c(F)c1F"
Reply: 2.3

Query: Provide the reported drug sensitivity score (system: U2OS) for "O=C(Nc1c(Cl)cncc1Cl)c1ccc(OC(F)F)c(OCC2CC2)c1"
Reply: 0

Query: Provide the reported drug sensitivity score (system: U2OS) for "CC(=O)NCCc1c[nH]c2ccccc12"
Reply: 0

----------
The entries below come with measured cell viability values attached.
Tested on: Caco-2
Method Notes: cell viability relative to DMSO; higher = less toxic
Condition Parameters: 72 h; 100 nM
Give the number; % is assumed, so skip it.

Cn1cc(-c2[nH]c3cc(NC(=O)[C@H](N)C4CCCCC4)cc4c3c2C=NNC4=O)cn1	97.8

Query: In one line, give reported cell viability of the entry O=C(Nc1c(Cl)cncc1Cl)c1ccc(OC(F)F)c(OCC2CC2)c1 [roflumilast] .
Reply: 97.3

Query: In one line, give reported cell viability of the entry Nc1nc(N)c(N=O)c(OCC2CCCCC2)n1 [NU-6027] .
Reply: 96.6

Query: In one line, give reported cell viability of the entry COc1ccc(COc2ccc(Cc3cnc(N)nc3N)cc2OC)cc1 [GW-2580] .
Reply: 95.7

----------
Test system: HepG2
Method Notes: cell viability relative to DMSO; higher = less toxic
Condition Parameters: 72 h; 100 nM
The entries below come with measured cell viability values attached.
Give the number; % is assumed, so skip it.

Query: In one line, give reported cell viability of the entry "CN(C)c1ccccc1CN1CCCN(Cc2ccccc2N(C)C)C1c1ccncc1" .
Reply: 97.5

Query: In one line, give reported cell viability of the entry "CCNC(=O)[C@H]1O[C@@H](n2cnc3c(N)ncnc32)[C@H](O)[C@@H]1O" .
Reply: 107

Query: In one line, give reported cell viability of the entry CC(C)(C)NCC(O)c1ccc(O)c(CO)c1 (stereo not drawn) .
Reply: 98.5

Query: In one line, give reported cell viability of the entry COc1ccc2[nH]c([S+]([O-])Cc3ncc(C)c(OC)c3C)nc2c1 (stereo not drawn) .
Reply: 99.4

Query: In one line, give reported cell viability of the entry "CCN(CC)Cc1cc(Nc2ccnc3cc(Cl)ccc23)ccc1O" .
Reply: 85.7

----------
System: Caco-2
Method Notes: cell viability relative to DMSO; higher = less toxic
Condition Parameters: 72 h; 1000 nM
The entries below come with measured cell viability values attached.
Give the number; % is assumed, so skip it.

Past entries and their recorded results:
C[C@@H](Oc1ccc(Cl)cc1)c1ccnc2ncnn12	109
CC1(C)CCC2=C(O1)c1ccccc1C(=O)C2=O [beta-lapachone]	96.3
Cc1cc(-c2ccc(CC(=O)Nc3ccc(-c4cccnc4)cc3)cc2)ccn1 [wnt-c59]	96.1
O=C(NS(=O)(=O)c1ccc(Br)s1)c1ccc(Cl)cc1Cl [tasisulam]	101
O=C(O)[C@H](Cc1ccc(Nc2nccc3ccncc23)cc1)NC1=C(Br)C(=O)C12CCCCC2 [CT-7758]	105
CCOc1ccc(-c2nc(-c3cccc4c3CCC4NCCO)no2)cc1OCC (configuration not stated) [CYM-5442]	99.2
C[C@@]1(O)[C@H](O)[C@@H](CO)O[C@H]1n1cnc2c(NC3CCCC3)nc(Cl)nc21 [2'-MeCCPA]	105
CC(C)(C)c1cc(C=C(C#N)C#N)cc(C(C)(C)C)c1O [tyrphostin-A9]	70.1
N#Cc1ccc(N(Cc2ccc(Br)cc2)n2cnnc2)cc1 [YM-511]	92
O=[N+]([O-])c1cc(Cl)ccc1S(=O)(=O)c1ccccc1 [BTB1]	98.6

Query: In one line, give reported cell viability of the entry c1ccc2sc(N3CCN(Cc4ccc5c(c4)OCO5)CC3)nc2c1 [2-[1-(4-piperonyl)piperazinyl]benzothiazole] .
Reply: 90.3

Query: In one line, give reported cell viability of the entry "NC(=O)c1cnc2[nH]ccc2c1N[C@@H]1[C@@H]2CC3C[C@H]1C[C@@](O)(C3)C2" .
Reply: 104
